System under test: Muscarinic acetylcholine receptor M2 (Homo sapiens, UniProt P08172); also: in other assays of this panel Not Active means under 50% inhibition at 10 µM
Sequence (P08172 whole entry): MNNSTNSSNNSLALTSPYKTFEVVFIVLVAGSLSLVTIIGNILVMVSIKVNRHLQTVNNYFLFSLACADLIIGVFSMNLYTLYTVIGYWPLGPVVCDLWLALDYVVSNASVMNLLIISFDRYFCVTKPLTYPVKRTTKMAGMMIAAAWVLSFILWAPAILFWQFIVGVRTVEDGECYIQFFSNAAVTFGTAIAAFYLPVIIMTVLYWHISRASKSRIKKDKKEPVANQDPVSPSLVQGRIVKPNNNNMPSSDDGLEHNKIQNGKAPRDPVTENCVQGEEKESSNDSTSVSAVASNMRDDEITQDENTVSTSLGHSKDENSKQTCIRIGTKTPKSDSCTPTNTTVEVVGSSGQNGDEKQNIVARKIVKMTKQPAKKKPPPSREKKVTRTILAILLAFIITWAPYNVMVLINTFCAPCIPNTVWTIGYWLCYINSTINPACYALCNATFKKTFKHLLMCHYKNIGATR
Type: cell membranes, CHO-K1, Membrane
Condition label: read-out: IC50
Observable: pIC50
Numbers only, as −log10 of the molar value.

Q. What does the data say about its pIC50? Entry: CN(C)c1ccc(C(=C2C=CC(=[N+](C)C)C=C2)c2ccc(N(C)C)cc2)cc1.[Cl-]
A. 5.84

---

Measurement notes: DRUGMATRIX: beta-Lactamase enzyme inhibition (substrate: Nitrocefin)
Parameters: species or system Bacillus cereus
Condition label: Not Active = under 50% inhibition at 10 µM
Observable: Ki

Example results:
INSERT INTO measurements (compound, observable, reported_value) VALUES
  ('CC(C)(C(=O)c1cccnc1)c1cccnc1', 'Ki', 'Not Active'),
  ('C[C@]12CC[C@@H]3c4ccc(OC(=O)c5ccccc5)cc4CC[C@H]3[C@@H]1CC[C@@H]2O [ESTRADIOL BENZOATE]', 'Ki', 'Not Active'),
  ('CC1=C(CC(=O)O)c2cc(F)ccc2/C1=C\c1ccc([S+](C)[O-])cc1 (stereo unspecified)', 'Ki', 'Not Active'),
  ('C#C[C@]1(O)CC[C@H]2[C@@H]3CCc4cc(OC)ccc4[C@H]3CC[C@@]21C', 'Ki', 'Not Active');

Can you give me Ki for all of these, one by one?
1. CC1(C)O[C@@H]2C[C@H]3[C@@H]4C[C@H](F)C5=CC(=O)CC[C@]5(C)[C@H]4[C@@H](O)C[C@]3(C)[C@]2(C(=O)CO)O1 [FLURANDRENOLIDE]
2. NC(=O)NO [HYDROXYUREA]

A.
["Not Active", "Not Active"]

Can you give me Ki for all of these, one by one?
1. Cc1cc2cc3c(C)cc(=O)oc3c(C)c2o1
2. CC(C(=O)O)c1cccc(C(=O)c2ccccc2)c1 (stereo unspecified)

A.
1: Not Active; 2: Not Active

---

System under test: Cytochrome P450 2D6 (Homo sapiens, UniProt P10635); also: in other assays of this panel Not Active means under 50% inhibition at 10 µM
Sequence (P10635 whole entry): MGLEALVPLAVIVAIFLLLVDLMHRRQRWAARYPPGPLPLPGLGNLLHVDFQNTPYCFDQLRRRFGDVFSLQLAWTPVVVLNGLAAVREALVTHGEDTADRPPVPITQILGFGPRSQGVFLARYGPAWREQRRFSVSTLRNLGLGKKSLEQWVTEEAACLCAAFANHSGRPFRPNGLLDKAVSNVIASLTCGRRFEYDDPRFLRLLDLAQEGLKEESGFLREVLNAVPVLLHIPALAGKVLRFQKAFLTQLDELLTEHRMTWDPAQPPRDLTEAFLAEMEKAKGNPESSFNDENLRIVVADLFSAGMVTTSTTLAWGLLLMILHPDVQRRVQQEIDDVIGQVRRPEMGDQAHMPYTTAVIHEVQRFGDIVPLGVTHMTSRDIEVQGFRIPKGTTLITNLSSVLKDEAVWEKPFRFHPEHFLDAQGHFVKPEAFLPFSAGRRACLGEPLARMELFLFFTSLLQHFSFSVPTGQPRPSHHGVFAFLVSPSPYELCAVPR
Condition label: bti-tn-5b1-4
Observable: IC50

INSERT INTO assay_data (compound, observable, reported_value) VALUES
  ('COc1cccc2c1C(=O)c1c(O)c3c(c(O)c1C2=O)C[C@@](O)(C(=O)CO)C[C@@H]3O[C@H]1C[C@H](N)[C@H](O)[C@H](C)O1 [DOXORUBICIN]', 'IC50', 'Not Active'),
  ('CC1(C)O[C@@H]2C[C@H]3[C@@H]4C[C@H](F)C5=CC(=O)C=C[C@]5(C)[C@@]4(F)[C@@H](O)C[C@]3(C)[C@]2(C(=O)CO)O1 [FLUOCINOLONE ACETONIDE]', 'IC50', 'Not Active'),
  ('CC(C)[C@H]1CC[C@H](C(=O)N[C@H](Cc2ccccc2)C(=O)O)CC1 [NATEGLINIDE]', 'IC50', 'Not Active'),
  ('Nc1ccn([C@@H]2CS[C@H](CO)O2)c(=O)n1 [LAMIVUDINE]', 'IC50', 'Not Active');
